% Recovery uPAR values for the sequences below.
- target_desc: urokinase plasminogen activator receptor (uPAR) (Homo sapiens)
- Construct: 10^6 Sf9 cells expressing full length uPAR ("fluPAR", day 2 post infection); expressed in transfected cells; host or cells: Sf9 insect cells (baculovirus-infected)
- assay_summary: Binding of individual phage clones to Sf9 cells expressing fluPAR (% recovery)
- assay_conditions: phage clone displaying the peptide; Sf9 cells expressing full length uPAR (fluPAR)
measurement_name: % Recovery uPAR

{"chain": "AEWHPGLSFGSYLWSKT (displayed on phage)", "value_observed": "5.7%"}
{"chain": "AEPALLNWSFFFNPGLH (displayed on phage)", "value_observed": "4.7%"}
{"chain": "AESQTGTLNTLFWNTLR (displayed on phage)", "value_observed": "2.8%"}
{"chain": "AEPMPHSLNFSQYLWYT (displayed on phage)", "value_observed": "2.2%"}
{"chain": "AESLPTLTSILWGKESV (displayed on phage)", "value_observed": "0.5%"}
{"chain": "AESSLWRIFSPSALMMS (displayed on phage)", "value_observed": "3.5%"}
{"chain": "AEMHRSLWEWYVPNQSA (displayed on phage)", "value_observed": "4.2%"}
{"chain": "AESSLWTRYAWPSMPSY (displayed on phage)", "value_observed": "12.1%"}
{"chain": "AECLNGGTAVSNKYFSNIHWCN (displayed on phage) [reference compound]", "value_observed": "6.8%"}
{"chain": "AEPLDLWSLYSLPPLAM (displayed on phage)", "value_observed": "6.0%"}

----------
- target_desc: urokinase plasminogen activator receptor (uPAR) (Homo sapiens, UniProt Q03405)
- Construct: 10^6 Sf9 cells expressing full length uPAR ("fluPAR", day 2 post infection); expressed in transfected cells; host or cells: Sf9 insect cells (baculovirus-infected)
- Sequence (Q03405 23-335, species assumed): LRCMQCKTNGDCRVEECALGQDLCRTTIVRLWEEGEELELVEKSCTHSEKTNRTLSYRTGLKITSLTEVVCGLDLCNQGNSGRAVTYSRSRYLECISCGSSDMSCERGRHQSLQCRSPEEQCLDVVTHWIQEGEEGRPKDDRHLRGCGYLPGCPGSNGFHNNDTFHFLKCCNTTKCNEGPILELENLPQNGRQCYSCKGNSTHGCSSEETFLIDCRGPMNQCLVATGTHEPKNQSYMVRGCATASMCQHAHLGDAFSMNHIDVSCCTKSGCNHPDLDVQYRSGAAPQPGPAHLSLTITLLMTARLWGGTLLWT
- assay_summary: Binding of individual phage clones to Sf9 cells expressing fluPAR (% recovery)
- assay_conditions: ratio of % recovery on uPAR Sf9 cells to % recovery on SPR Sf9 cells
measurement_name: Specificity (uPAR/SPR)

{"chain": "AEPLDLWSLYSLPPLAM (displayed on phage)", "value_observed": 63}
{"chain": "AEPALLNWSFFFNPGLH (displayed on phage)", "value_observed": 47}
{"chain": "AESLPTLTSILWGKESV (displayed on phage)", "value_observed": 23}
{"chain": "AEMHRSLWEWYVPNQSA (displayed on phage)", "value_observed": 105}
{"chain": "AESSLWTRYAWPSMPSY (displayed on phage)", "value_observed": 47}
{"chain": "AEPMPHSLNFSQYLWYT (displayed on phage)", "value_observed": 28}
{"chain": "AESQTGTLNTLFWNTLR (displayed on phage)", "value_observed": 350}
{"chain": "AECLNGGTAVSNKYFSNIHWCN (displayed on phage) [reference compound]", "value_observed": 850}
{"chain": "AESSLWRIFSPSALMMS (displayed on phage)", "value_observed": 50}
{"chain": "AEWHPGLSFGSYLWSKT (displayed on phage)", "value_observed": 168}

----------
- target_desc: substance P receptor (Homo sapiens, UniProt P25103)
- Construct: expressed in transfected cells; host or cells: Sf9 insect cells
- Sequence (P25103 whole entry, species assumed): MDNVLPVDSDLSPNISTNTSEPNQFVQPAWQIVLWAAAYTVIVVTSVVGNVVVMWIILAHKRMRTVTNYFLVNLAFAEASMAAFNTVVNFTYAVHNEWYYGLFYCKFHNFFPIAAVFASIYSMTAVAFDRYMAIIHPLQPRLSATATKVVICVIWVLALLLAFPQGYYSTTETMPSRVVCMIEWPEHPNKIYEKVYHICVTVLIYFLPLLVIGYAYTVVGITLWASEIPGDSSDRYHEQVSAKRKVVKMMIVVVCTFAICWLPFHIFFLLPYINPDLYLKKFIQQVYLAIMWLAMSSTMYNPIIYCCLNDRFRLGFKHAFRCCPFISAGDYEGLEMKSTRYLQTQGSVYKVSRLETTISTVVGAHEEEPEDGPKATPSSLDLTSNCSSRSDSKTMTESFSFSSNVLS
- assay_summary: Binding of individual phage clones to Sf9 cells expressing substance P receptor (control)
- assay_conditions: phage clone displaying the peptide

{"chain": "AEMHRSLWEWYVPNQSA (displayed on phage)", "% Recovery SPR": "0.040%"}
{"chain": "AESSLWRIFSPSALMMS (displayed on phage)", "% Recovery SPR": "0.070%"}
{"chain": "AESQTGTLNTLFWNTLR (displayed on phage)", "% Recovery SPR": "0.008%"}
